Biological target: PDGF-R (Homo sapiens, UniProt P09619)
Sequence (P09619 33-1106, species assumed): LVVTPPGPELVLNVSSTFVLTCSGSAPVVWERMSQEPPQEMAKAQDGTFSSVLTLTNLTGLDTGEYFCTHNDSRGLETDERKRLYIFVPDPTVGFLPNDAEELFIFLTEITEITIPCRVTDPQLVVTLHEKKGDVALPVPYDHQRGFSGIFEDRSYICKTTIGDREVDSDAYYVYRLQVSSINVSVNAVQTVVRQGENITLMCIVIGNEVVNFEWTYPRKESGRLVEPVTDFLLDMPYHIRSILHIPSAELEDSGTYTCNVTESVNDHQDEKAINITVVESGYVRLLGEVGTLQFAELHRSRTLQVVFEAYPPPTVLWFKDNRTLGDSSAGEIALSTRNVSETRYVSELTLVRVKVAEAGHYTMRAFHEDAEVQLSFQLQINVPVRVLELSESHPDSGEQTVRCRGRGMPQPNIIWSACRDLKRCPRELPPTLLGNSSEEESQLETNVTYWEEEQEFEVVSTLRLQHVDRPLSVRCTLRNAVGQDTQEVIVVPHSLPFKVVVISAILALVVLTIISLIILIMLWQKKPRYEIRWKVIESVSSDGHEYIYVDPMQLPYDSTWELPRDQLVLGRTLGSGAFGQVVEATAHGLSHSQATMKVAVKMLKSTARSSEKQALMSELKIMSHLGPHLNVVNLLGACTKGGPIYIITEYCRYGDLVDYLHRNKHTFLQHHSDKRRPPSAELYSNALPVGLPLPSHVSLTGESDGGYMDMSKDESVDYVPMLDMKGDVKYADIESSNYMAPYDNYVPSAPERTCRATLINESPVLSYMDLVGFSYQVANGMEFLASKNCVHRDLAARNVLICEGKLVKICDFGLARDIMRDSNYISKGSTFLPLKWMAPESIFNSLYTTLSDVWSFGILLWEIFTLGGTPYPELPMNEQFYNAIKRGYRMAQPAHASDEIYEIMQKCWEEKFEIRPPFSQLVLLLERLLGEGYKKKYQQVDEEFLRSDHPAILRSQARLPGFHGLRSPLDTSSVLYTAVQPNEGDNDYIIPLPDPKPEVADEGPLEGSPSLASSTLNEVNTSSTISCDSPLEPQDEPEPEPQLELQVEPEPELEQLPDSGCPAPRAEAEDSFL
Experiment: PDGF-R ELISA
Type: cell-based
Excerpt: A PDGF-R ELISA is described in International Patent Publication No. WO 96/40116, published December 19, 1996 by Tang et al.
Examples of compounds with documented PDGF Kinase %Inhibition follow.
Endpoint: PDGF Kinase %Inhibition (%)

[[record]]
structure_notation = "CC(C)(C)c1cc(C=C2C(=O)Nc3ccc(S(=O)(=O)Nc4ccc(C(F)(F)F)cc4)cc32)cc([N+](=O)[O-])c1O"
endpoint = "PDGF Kinase %Inhibition"
assay_value = 23.2

[[record]]
structure_notation = "CNS(=O)(=O)c1ccc2c(c1)C(=C1C(=O)Nc3ccccc31)C(=O)N2"
endpoint = "PDGF Kinase %Inhibition"
assay_value = 22.1

[[record]]
structure_notation = "COc1ccc(Br)c(C=C2C(=O)Nc3ccc(S(=O)(=O)N4CCOCC4)cc32)c1O"
endpoint = "PDGF Kinase %Inhibition"
assay_value = -27.1

[[record]]
structure_notation = "COc1ccc2[nH]cc(C=C3C(=O)Nc4ccc(S(=O)(=O)N5CCOCC5)cc43)c2c1"
endpoint = "PDGF Kinase %Inhibition"
assay_value = 15.6

[[record]]
structure_notation = "O=C1Nc2ccc(S(=O)(=O)Nc3ccc(C(F)(F)F)cc3)cc2C1=Cc1cc(O)ccc1O"
endpoint = "PDGF Kinase %Inhibition"
assay_value = 5.0

[[record]]
structure_notation = "O=C1Nc2ccc(CCCl)cc2C1=Cc1c[nH]c(=O)[nH]c1=O"
endpoint = "PDGF Kinase %Inhibition"
assay_value = -13.9

[[record]]
structure_notation = "CC(C)(C)c1cc(C=C2C(=O)Nc3c(Br)cc(Br)cc32)ccc1OCc1ccccc1"
endpoint = "PDGF Kinase %Inhibition"
assay_value = 12.3

[[record]]
structure_notation = "O=C1Nc2ccc(F)cc2C1=C1C(=O)Nc2ccc(CCCl)cc21"
endpoint = "PDGF Kinase %Inhibition"
assay_value = 14.5

[[record]]
structure_notation = "Cc1c(Br)ccc2c1C(=Cc1ccccn1)C(=O)N2"
endpoint = "PDGF Kinase %Inhibition"
assay_value = -1.8

[[record]]
structure_notation = "COc1cc(N(C)C)ccc1C=C1C(=O)Nc2ccc(Br)c(C)c21"
endpoint = "PDGF Kinase %Inhibition"
assay_value = 23.2

[[record]]
structure_notation = "COc1c(Br)cc(C=C2C(=O)Nc3c(Br)cc(Br)cc32)cc1C(C)(C)C"
endpoint = "PDGF Kinase %Inhibition"
assay_value = 0.7

[[record]]
structure_notation = "CNS(=O)(=O)c1ccc2c(c1)C(=C1C(=O)N(C)c3ccccc31)C(=O)N2"
endpoint = "PDGF Kinase %Inhibition"
assay_value = 9.9

[[record]]
structure_notation = "CC(=O)Oc1ccc(C=C2C(=O)Nc3ccc(I)cc32)cc1OC(C)=O"
endpoint = "PDGF Kinase %Inhibition"
assay_value = 15.2

[[record]]
structure_notation = "CNS(=O)(=O)c1ccc2c(c1)C(=Cc1cccc(C(F)(F)F)c1F)C(=O)N2"
endpoint = "PDGF Kinase %Inhibition"
assay_value = 2.3

[[record]]
structure_notation = "CC(=O)n1cc(C=C2C(=O)Nc3c(Br)cc(Br)cc32)c2ccccc21"
endpoint = "PDGF Kinase %Inhibition"
assay_value = 2.8

[[record]]
structure_notation = "O=C1Nc2ccc(I)cc2C1=Cc1cccn1-c1ccc(Cl)cc1"
endpoint = "PDGF Kinase %Inhibition"
assay_value = 25.8

[[record]]
structure_notation = "O=C1Nc2c(Br)cc(Br)cc2C1=Cc1c[nH]c(=O)[nH]c1=O"
endpoint = "PDGF Kinase %Inhibition"
assay_value = -2.5

[[record]]
structure_notation = "Cc1c(Br)ccc2c1C(=Cc1ccc([N+](=O)[O-])cc1)C(=O)N2"
endpoint = "PDGF Kinase %Inhibition"
assay_value = -0.2

